- test system: Adenosine receptor A1 (Homo sapiens) (UniProt P30542)
- Sequence (whole entry): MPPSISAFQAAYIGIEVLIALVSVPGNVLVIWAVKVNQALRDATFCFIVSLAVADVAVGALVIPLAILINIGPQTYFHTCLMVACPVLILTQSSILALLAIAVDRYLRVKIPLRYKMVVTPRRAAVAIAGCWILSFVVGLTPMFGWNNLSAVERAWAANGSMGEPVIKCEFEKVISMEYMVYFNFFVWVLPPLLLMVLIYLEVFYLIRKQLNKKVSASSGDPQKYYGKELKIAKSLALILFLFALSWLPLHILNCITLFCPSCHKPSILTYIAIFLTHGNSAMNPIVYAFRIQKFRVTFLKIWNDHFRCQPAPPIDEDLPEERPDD
- assay remarks: Activity at human adenosine A1 receptor expressed in CHOK1 cells assessed as agonist-receptor ternary complex remaining by […]
- Assay type: functional, cell-based
- condition: CHO-K1
So I've got a bunch of molecules here, and I need their ED50 values.

Nc1sc(Br)c(-c2cccc(C(F)(F)F)c2)c1C(=O)c1ccccc1 : > 10 µM
Nc1sc(-c2ccc(Cl)cc2)c(-c2cccc(C(F)(F)F)c2)c1C(=O)c1ccccc1 : > 10 µM

Value sought for every listed molecule: ED50.
1. CCOC(=O)c1c(N)sc(-c2ccc(C(F)(F)F)cc2)c1-c1cccc(C(F)(F)F)c1
2. CC(=O)c1ccc(-c2sc(N)c(C(=O)c3ccccc3)c2-c2cccc(C(F)(F)F)c2)cc1
3. COc1ccc(-c2sc(N)c(C(=O)c3ccccc3)c2-c2cccc(C(F)(F)F)c2)cc1
4. CCOC(=O)c1c(N)sc(-c2cccc(C(C)=O)c2)c1-c1cccc(C(F)(F)F)c1
5. CCOC(=O)c1c(N)sc(-c2ccc([N+](=O)[O-])cc2)c1-c1cccc(C(F)(F)F)c1

Output:
1. > 10 µM
2. > 10 µM
3. > 10 µM
4. > 10 µM
5. > 10 µM

Value sought for every listed molecule: ED50.
1. CCOC(=O)c1c(-c2cccc(C(F)(F)F)c2)csc1N
2. CCOC(=O)c1c(N)sc(-c2ccc(OC)cc2)c1-c1cccc(C(F)(F)F)c1
3. CC(=O)c1cccc(-c2sc(N)c(C(=O)c3ccccc3)c2-c2cccc(C(F)(F)F)c2)c1
4. CCOC(=O)c1c(N)sc(-c2ccccc2)c1-c1cccc(C(F)(F)F)c1
5. CCOC(=O)c1c(N)sc(-c2ccc(Cl)cc2)c1-c1cccc(C(F)(F)F)c1
6. Nc1sc(-c2ccc([N+](=O)[O-])cc2)c(-c2cccc(C(F)(F)F)c2)c1C(=O)c1ccccc1

Output:
["9.4 µM", "> 10 µM", "> 10 µM", "> 10 µM", "6.6 µM", "> 10 µM"]

====

- test system: Adenosine receptor A1 (Homo sapiens) (UniProt P30542)
- assay remarks: Activity at human adenosine A1 receptor expressed in CHOK1 cells assessed as agonist-receptor ternary complex remaining by […] after 10 mins
- Type: functional, cell-based
- Design: concentration or dose not given beside the values
- condition: CHO-K1
experimental endpoint: Activity (%)
Give bare numbers, in %.

Nc1scc(-c2cccc(C(F)(F)F)c2)c1C(=O)c1ccccc1 : 76.8
CCOC(=O)c1c(N)sc(-c2ccc([N+](=O)[O-])cc2)c1-c1cccc(C(F)(F)F)c1 : 10.3
CCOC(=O)c1c(-c2cccc(C(F)(F)F)c2)csc1N : 7.8
Nc1sc(-c2ccc(Cl)cc2)c(-c2cccc(C(F)(F)F)c2)c1C(=O)c1ccccc1 : 22.5

Below: the item to evaluate.
Input: Identify the measured Activity of CC(=O)c1cccc(-c2sc(N)c(C(=O)c3ccccc3)c2-c2cccc(C(F)(F)F)c2)c1 for Adenosine receptor A1 (Homo sapiens) (UniProt P30542).
Output: 18.5
